# target-system: RARβ (Homo sapiens, UniProt P10826)
# test-protocol: chimeric receptor transactivation assay, RARβ
# condition: chimeric receptor transactivation; read-out: RAR EC50 β
pEC50: −log10 of the molar value.
Label y when pEC50 is at or above 7; anything below gets n.

For orientation, consider the following solved cases.
molecule=COc1cc2c(cc1C(/C=C/c1ccc(C(=O)O)cc1)=N\O)C(C)(C)CCC2(C)C assigned_label=n
molecule="CC1(C)CCCc2cc(C(C=Cc3ccc(C(=O)O)cc3)=NO)ccc21 [drawing 16]" assigned_label=n

Test whether the molecule CC1(C)CCSc2ccc(C(/C=C/c3ccc(C(=O)O)cc3F)=N\O)cc21 records pEC50 of 7 or higher.
n

Test whether the molecule COc1cc2c(cc1C(/C=C/c1ccc(C(=O)O)cc1)=N/O)C(C)(C)CCC2(C)C records pEC50 of 7 or higher.
n

Test whether the molecule CC1=CCC(C)(C)c2cc(C(/C=C/c3ccc(C(=O)O)cc3F)=N\O)ccc21 records pEC50 of 7 or higher.
n

Test whether the molecule CC1(C)CCC(C)(C)c2cc(C(C=Cc3ccc(C(=O)O)cc3)=NO)ccc21 [drawing 8] records pEC50 of 7 or higher.
y

---

# target-system: RARα (Homo sapiens, UniProt P10276)
# Sequence (P10276 183-417 limits assumed): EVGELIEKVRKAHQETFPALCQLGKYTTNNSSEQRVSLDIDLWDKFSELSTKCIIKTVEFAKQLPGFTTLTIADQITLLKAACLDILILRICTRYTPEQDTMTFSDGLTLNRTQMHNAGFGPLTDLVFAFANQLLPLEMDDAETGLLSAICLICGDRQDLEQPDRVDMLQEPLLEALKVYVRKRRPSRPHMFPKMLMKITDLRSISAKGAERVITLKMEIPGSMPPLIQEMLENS
# test-protocol: chimeric receptor transactivation assay, RARα
# condition: chimeric receptor transactivation; read-out: RAR EC50 α
# Method: The compounds of the invention were tested in certain assays for activity as agonists of RAR and RXR retinoid receptors. […] Efficacy in a transactivation assay is expressed as a percentage of the maximum potency attained by the compound compared to a standard which, in this case, is the compound 4-[(1E)-2-(5,6,7,8-tetrahydro-5,5,8,8-tetramethyl-2-naphthalenyl)-1-propenyl]-benzoic acid. […]
assay-metric: pEC50
Just the number, please; pEC50 means minus log10 of the concentration in mol/L.

molecule="CC1(C)CC(C)(C)c2cc(C(C=Cc3ccc(C(=O)O)cc3)=NO)ccc2O1 [drawing 25]" assay_metric=pEC50 measured_number=6.87
molecule="CC1(C)CCC(C)(C)c2cc(C(C=Cc3ccc(C(=O)O)cc3)=NO)ccc21 [drawing 9]" assay_metric=pEC50 measured_number=6.82

pEC50 on RARα (Homo sapiens, UniProt P10276) for CC1(C)CCCc2ccc(C(/C=C/c3ccc(C(=O)O)cc3F)=N\O)cc21 is 6.46

pEC50 on RARα (Homo sapiens, UniProt P10276) for CC1(C)CCC(C)(C)c2nc(C(C=Cc3ccc(C(=O)O)cc3)=NO)cnc21 [drawing 35] is 6.89

pEC50 on RARα (Homo sapiens, UniProt P10276) for CC1=CCC(C)(C)c2cc(C(/C=C/c3ccc(C(=O)O)cc3)=N/O)ccc21 is 5.15

pEC50 on RARα (Homo sapiens, UniProt P10276) for COc1cc2c(cc1C(/C=C/c1ccc(C(=O)O)cc1)=N/O)C(C)(C)CCC2(C)C is 4.10

---

Protein target, amino acids: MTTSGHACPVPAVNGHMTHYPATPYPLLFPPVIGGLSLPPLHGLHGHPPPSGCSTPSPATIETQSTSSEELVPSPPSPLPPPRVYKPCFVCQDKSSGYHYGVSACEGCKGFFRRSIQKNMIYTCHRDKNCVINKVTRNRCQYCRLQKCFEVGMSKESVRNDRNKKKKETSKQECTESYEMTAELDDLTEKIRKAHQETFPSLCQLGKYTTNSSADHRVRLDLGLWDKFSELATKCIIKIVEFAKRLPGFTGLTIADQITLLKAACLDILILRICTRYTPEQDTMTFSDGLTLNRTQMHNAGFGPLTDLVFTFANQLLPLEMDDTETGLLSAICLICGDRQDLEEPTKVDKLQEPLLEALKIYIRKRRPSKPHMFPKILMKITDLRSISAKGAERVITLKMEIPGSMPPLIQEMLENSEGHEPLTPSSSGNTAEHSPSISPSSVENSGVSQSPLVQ
Checkbox rule: Ki lower than 5 µM = met; Ki not lower than 5 µM = not met.

For orientation, consider the following solved cases.
compound="Cc1cc2c(cc1C(C=Cc1ccc(C(=O)O)cc1)=NO)C(C)(C)CCC2(C)C [drawing 37]" assigned_label="not met"
compound="CC1(C)CCC(C)(C)c2cc(C(C=Cc3ccc(C(=O)O)cc3)=NO)ccc21 [drawing 8]" assigned_label=met
compound=CC1(C)CC(C)(C)c2cc(C(/C=C/c3ccc(C(=O)O)cc3F)=N\O)ccc21 assigned_label="not met"

Given CC1(C)CC(C)(C)c2cc(C(C=Cc3ccc(C(=O)O)cc3)=NO)ccc2O1 [drawing 24] , is recorded Ki strictly lower than 5 µM?
not met

Given CC1=CCC(C)(C)c2cc(C(/C=C/c3ccc(C(=O)O)cc3)=N\O)ccc21 , is recorded Ki strictly lower than 5 µM?
met

Given CC1(C)CC(C)(C)c2cc(C(C=Cc3ccc(C(=O)O)cc3)=NO)ccc21 [drawing 30] , is recorded Ki strictly lower than 5 µM?
not met
